SUBJECT OF TEST: T1, human c-Met/Fc chimera (R&D Systems) (human, UniProt P08581 25-932)
T1 construct: Bought from R&D Systems; Printed once as 'c-Met/Fe chimera' [sic]; also called human c-Met/Fe chimera; not shown: Fc part (and any linker or tag) of the bought chimera
ASSAY EXPLANATION: fluorescence polarisation (anisotropy), 5 nM dye-labelled peptide, c-Met/Fc 0-250 nM, one-site fit
Bridges are numbered along the chain shown (N, C = ends).
MEASURED METRIC: Kd (pM)
Answers are plain numbers, in pM.

Input line: Check the records and state Kd for Ac-AGSCYCSGPPRFECWCYETEGTGGGK-NH2 (disulfide 6-14, 4-16; not fully specified (residue 26); also: DY-633 dye attached, site not given here) [Compound 3 ([Peptide 1]-DY-633 conjugate)]
Output line: 500
